assay: qHTS assay to identify small molecule antagonists of the estrogen receptor alpha (ER-alpha) signaling pathway - cell viability counter screen (AID 743074); details: ERalpha-bla HEK293 viability, CellTiter-Glo luminescence, 18 h; series mostly up to 69.4 µM;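 also: HEK293 cells carrying ER-alpha-UAS-bla reporter stimulated with 17beta-estradiol; nearly all actives have a fitted effect of over 45% in size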
Records with an inconclusive call do not appear. Activity calls are given as the source filed them. Calls follow the shape of the full dose curve.
Write down one outcome, taken from 1 for active, 0 for inactive

Q: Recorded test outcome, item C1C[C@@H]2[C@H]3CC[C@H](C3)[C@@H]2C1
Result: 0

Q: Recorded test outcome, item CC(=O)Oc1ccc([N+](=O)[O-])cc1CCl
Result: 0

Q: Recorded test outcome, item CC(=O)[C@H]1[C@H](C#N)C[C@H]2[C@@H]3CC=C4C[C@@H](O)CC[C@]4(C)[C@H]3CC[C@@]21C
Result: 0

Q: Recorded test outcome, item C=C1CCC2CC1C2(C)C (stereo not drawn)
Result: 0

Q: Recorded test outcome, item COc1ccccc1N1CCN(CC(O)COc2cccc3ccccc23)CC1 (stereo not drawn)
Result: 0

Turning now to a further record.
Q: Recorded test outcome, item CC[N+](CC)(CCNC(=O)C(=O)NCC[N+](CC)(CC)Cc1ccccc1Cl)Cc1ccccc1Cl
Result: 0
